Numbers sourced from ChEMBL document CHEMBL1147604.

# test.system: Caspase-1 (Homo sapiens)
# Sequence (P29466 whole entry): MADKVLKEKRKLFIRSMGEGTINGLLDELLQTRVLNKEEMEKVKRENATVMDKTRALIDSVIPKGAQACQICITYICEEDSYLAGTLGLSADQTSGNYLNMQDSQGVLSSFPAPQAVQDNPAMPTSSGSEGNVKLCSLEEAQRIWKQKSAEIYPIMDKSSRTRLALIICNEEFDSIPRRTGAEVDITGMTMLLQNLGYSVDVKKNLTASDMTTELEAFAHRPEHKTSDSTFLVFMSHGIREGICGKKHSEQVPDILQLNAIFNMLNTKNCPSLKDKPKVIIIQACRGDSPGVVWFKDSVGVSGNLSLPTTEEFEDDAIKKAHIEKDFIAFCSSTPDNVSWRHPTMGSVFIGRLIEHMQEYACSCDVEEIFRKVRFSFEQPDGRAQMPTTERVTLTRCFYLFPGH
readout.kind: pIC50
pIC50 (log units): -log10 of the concentration in mol/L.

Exercise: Which value of pIC50 has been reported for COC(=O)CC(NC(=O)[C@@H](NC(=O)OCc1ccccc1)C(C)C)C(=O)CF (stereo partly specified) in the records?
Solution: 6.05

----------
# test.system: Calpain-1 catalytic subunit (Homo sapiens, UniProt P07384)
# Sequence (P07384 whole entry): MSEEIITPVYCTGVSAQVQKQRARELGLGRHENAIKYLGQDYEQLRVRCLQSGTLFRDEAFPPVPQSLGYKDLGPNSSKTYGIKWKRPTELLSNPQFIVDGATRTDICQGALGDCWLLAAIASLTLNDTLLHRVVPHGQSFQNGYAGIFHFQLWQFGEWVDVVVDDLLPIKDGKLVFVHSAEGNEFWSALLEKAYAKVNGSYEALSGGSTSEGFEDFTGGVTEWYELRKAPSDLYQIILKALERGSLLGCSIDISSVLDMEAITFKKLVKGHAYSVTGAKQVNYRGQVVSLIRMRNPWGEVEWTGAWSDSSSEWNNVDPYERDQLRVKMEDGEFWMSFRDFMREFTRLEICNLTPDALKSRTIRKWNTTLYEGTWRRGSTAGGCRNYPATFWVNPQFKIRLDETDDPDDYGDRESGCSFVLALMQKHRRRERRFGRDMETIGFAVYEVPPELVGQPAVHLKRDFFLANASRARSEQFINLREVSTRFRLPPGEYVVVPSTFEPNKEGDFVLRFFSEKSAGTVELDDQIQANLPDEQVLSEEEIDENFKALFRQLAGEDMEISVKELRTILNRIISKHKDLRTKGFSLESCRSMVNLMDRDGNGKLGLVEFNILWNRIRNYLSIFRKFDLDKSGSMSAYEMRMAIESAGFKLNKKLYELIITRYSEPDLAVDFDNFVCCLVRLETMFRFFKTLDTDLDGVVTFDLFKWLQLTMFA
# test.details: Compound was evaluated for its inhibitory activity against the Calpain 1 enzyme
readout.kind: IC50

Exercise: Which value of IC50 has been reported for CC(C)[C@H](NC(=O)OCc1ccccc1)C(=O)NC(CC(=O)O)C(=O)CF (stereo partly specified) in the records?
Solution: > 10 µM

----------
Recorded measurements of IC50, one per entry
# test.system: Caspase-3 (Homo sapiens)
# Sequence (P42574 29-175 limits assumed): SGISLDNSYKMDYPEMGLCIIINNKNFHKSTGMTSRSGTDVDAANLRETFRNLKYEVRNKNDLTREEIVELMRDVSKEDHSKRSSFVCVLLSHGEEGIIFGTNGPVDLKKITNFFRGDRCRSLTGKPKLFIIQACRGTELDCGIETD
# Sequence (P42574 176-277 limits assumed): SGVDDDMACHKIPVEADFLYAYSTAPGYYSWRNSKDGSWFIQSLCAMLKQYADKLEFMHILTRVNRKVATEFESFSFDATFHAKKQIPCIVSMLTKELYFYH
# test.details: Inhibitory activity against human recombinant Caspase-3 enzyme
Express your answer as a number followed by its unit.

>>> reported_measurement("COC(=O)CC(NC(=O)[C@@H](NC(=O)OCc1ccccc1)C(C)C)C(=O)CF (some centres not stated)")
"1100 nM"

Would you kindly look at the next entry?
Exercise: Which value of IC50 has been reported for CC(C)[C@H](NC(=O)OCc1ccccc1)C(=O)NC(CC(=O)O)C(=O)CF (some centres not stated) in the records?
Solution: 30 nM

----------
# test.system: Caspase-9 (Homo sapiens, UniProt P55211)
# Sequence (P55211 1-315 limits assumed): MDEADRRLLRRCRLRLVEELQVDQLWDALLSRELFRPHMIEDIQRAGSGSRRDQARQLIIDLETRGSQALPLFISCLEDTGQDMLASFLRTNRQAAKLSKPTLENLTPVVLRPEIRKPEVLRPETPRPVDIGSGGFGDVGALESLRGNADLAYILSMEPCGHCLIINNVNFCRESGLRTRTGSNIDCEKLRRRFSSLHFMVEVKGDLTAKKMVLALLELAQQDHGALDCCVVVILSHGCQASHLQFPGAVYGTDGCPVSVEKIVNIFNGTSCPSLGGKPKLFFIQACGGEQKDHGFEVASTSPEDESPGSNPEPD
# Sequence (P55211 331-416 limits assumed): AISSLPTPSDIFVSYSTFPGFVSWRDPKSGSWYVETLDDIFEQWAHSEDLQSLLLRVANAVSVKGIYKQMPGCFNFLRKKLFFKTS
readout.kind: IC50 (nM)
Output spec: scalar in nM, unitless text.

Exercise: Item: CC(C)[C@H](NC(=O)OCc1ccccc1)C(=O)NC(CC(=O)O)C(=O)CF (stereo partly specified) Test system: Caspase-9 (Homo sapiens, UniProt P55211) Read-out: IC50 Value: ?
Solution: 5

----------
# test.system: Coagulation factor X (Homo sapiens)
# Sequence (P00742 41-179 limits assumed): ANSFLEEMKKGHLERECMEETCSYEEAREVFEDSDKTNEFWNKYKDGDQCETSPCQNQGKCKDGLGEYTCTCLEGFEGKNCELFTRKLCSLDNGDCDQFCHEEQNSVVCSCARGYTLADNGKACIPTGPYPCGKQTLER
# Sequence (P00742 235-488 limits assumed): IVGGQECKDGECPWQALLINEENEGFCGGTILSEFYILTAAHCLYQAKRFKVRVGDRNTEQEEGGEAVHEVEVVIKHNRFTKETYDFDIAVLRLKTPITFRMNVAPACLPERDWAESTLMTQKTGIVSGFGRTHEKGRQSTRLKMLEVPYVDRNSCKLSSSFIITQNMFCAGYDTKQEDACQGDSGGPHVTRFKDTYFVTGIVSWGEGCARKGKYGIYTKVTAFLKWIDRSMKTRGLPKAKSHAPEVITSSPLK
readout.kind: IC50

Exercise: Which value of IC50 has been reported for COC(=O)CC(NC(=O)[C@@H](NC(=O)OCc1ccccc1)C(C)C)C(=O)CF (stereo partly specified) in the records?
Solution: > 100 µM
